test: Pharmacokinetic parameters in mice, plasma, brain and CSF after oral administration; format: in vivo, mice (strain CD-1); conditions: mice (CD-1), 30 mg/kg orally in 0.8% Methocel
measure name: blood-brain-barrier crossing behaviour

# molecule, result
records = [
    ("CC(F)(F)COc1ccc([C@H]2CC(=O)N2c2ccc3[nH]cnc3c2)c(F)c1F [Example 13]", "good"),
    ("COc1cc(F)c(C2CC(=O)N2c2ccc3nc[nH]c3c2)c(F)c1 (racemic) [Example 4]", "good"),
    ("CC(F)(F)COc1ccc([C@H]2CC(=O)N2c2ccc3[nH]cnc3c2)c(F)c1 [Example 11]", "good"),
]

====

measure name: melting point

# item smiles, melting point
measured = [
    ("O=C1C[C@H](c2ccc(OCCC(F)F)c(F)c2F)N1c1ccc2[nH]cnc2c1", "165 to 170 °C"),
    ("CC(F)(F)COc1ccc([C@@H]2CC(=O)N2c2ccc3[nH]cnc3c2)c(F)c1", "203 to 208 °C"),
    ("CC(F)(F)COc1cc(F)c([C@H]2CC(=O)N2c2ccc3[nH]cnc3c2)c(F)c1", "158 to 162 °C"),
    ("O=C1C[C@@H](c2ccc(OCCC(F)F)cc2F)N1c1ccc2[nH]cnc2c1", "137 to 142 °C"),
    ("CC(F)(F)COc1cc(F)c([C@@H]2CC(=O)N2c2ccc3[nH]cnc3c2)c(F)c1", "163 to 166 °C"),
]

Quick one: give me melting point for each item below, same order please.
1. CC(F)(F)COc1ccc([C@H]2CC(=O)N2c2ccc3[nH]cnc3c2)c(F)c1F
2. O=C1C[C@H](c2ccc(OCCC(F)F)cc2F)N1c1ccc2[nH]cnc2c1
3. CC(F)(F)COc1ccc([C@@H]2CC(=O)N2c2ccc3[nH]cnc3c2)c(F)c1F

Reply |
173 to 177 °C
150 to 155 °C
170 to 174 °C

Quick one: give me melting point for each item below, same order please.
1. O=C1C[C@@H](c2ccc(OCCC(F)F)c(F)c2F)N1c1ccc2[nH]cnc2c1
2. CC(F)(F)COc1ccc([C@H]2CC(=O)N2c2ccc3[nH]cnc3c2)c(F)c1

Reply |
148 to 153 °C
165 to 170 °C

====

hQPCTL (Homo sapiens) data, read-out pKi
Sequence (Q9NXS2 whole entry): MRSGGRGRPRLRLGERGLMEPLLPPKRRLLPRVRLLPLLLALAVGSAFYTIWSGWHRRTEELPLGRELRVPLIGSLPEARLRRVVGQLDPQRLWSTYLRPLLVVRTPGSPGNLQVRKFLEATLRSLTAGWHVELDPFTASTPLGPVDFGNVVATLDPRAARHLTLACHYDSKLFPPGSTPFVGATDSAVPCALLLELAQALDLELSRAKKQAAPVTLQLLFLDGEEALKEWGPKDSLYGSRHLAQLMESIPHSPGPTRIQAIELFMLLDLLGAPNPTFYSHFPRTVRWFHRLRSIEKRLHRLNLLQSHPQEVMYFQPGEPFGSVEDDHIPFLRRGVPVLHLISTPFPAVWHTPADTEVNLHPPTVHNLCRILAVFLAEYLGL
Answers are plain numbers, as −log10 of the molar value.

# compound, tested on, measure name, recorded number
measured = [
    ("CC(F)(F)COc1cc(F)c([C@H]2CC(=O)N2c2ccc3[nH]cnc3c2)c(F)c1", "hQPCTL (Homo sapiens)", "pKi", 9.52),
    ("O=C1C[C@H](c2ccc(OCCC(F)F)cc2F)N1c1ccc2[nH]cnc2c1", "hQPCTL (Homo sapiens)", "pKi", 9.07),
    ("CC(F)(F)COc1ccc([C@H]2CC(=O)N2c2ccc3[nH]cnc3c2)c(F)c1F", "hQPCTL (Homo sapiens)", "pKi", 8.70),
]

Lab note: next compound to report on.
Note to self: pKi recorded for COc1cc(F)c(C2CC(=O)N2c2ccc3nc[nH]c3c2)c(F)c1 (racemic) was 8.60

====

biological target: hQC (Homo sapiens)
Sequence (Q16769 29-361): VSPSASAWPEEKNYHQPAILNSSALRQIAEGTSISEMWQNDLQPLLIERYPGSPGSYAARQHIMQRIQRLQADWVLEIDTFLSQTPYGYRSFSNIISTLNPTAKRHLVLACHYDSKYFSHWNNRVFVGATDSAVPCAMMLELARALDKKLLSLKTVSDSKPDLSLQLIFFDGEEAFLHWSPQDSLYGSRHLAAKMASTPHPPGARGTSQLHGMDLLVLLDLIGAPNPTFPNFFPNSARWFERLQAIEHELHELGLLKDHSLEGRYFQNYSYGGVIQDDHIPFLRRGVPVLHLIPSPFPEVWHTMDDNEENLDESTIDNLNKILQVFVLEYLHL
measure name: Ki (nM)
Numbers only, in nM.

Study these solved cases before continuing.
# compound, recorded number
records = [
    ("CC(F)(F)COc1ccc([C@H]2CC(=O)N2c2ccc3[nH]cnc3c2)c(F)c1F [Example 13]", 2.3),
    ("O=C1C[C@H](c2ccccc2)N1c1ccc2nc[nH]c2c1 [Example 2]", 20.8),
]

Lab note: next compound to report on.
The reported hQC (Homo sapiens) Ki of CC(F)(F)COc1cc(F)c([C@H]2CC(=O)N2c2ccc3[nH]cnc3c2)c(F)c1 [Example 15] is 3.6
